Test system: Capan-1 (K-Ras G12V)
Assay: CellTiter-Glo cell viability assay, 5-day treatment
Type: cell-based
Settings: Homo sapiens, CAPAN-1, 120 h, 5-day treatment; read-out: Capan-1 Cell Viability assay data (K-Ras G12V, IC50)
property_label: IC50

For each of the compounds below, state IC50.
1. CCn1c(-c2cccnc2[C@H](C)OC)c2c3cc(ccc31)-c1csc(n1)C[C@H](NC(=O)[C@H](C(C)C)N(C)C(=O)N1C[C@H](C)N(C)C[C@@H]1C)C(=O)N1CCC[C@H](N1)C(=O)OCC(C)(C)C2 [Example A283]
2. CCn1c(-c2cnccc2COC)c2c3cc(ccc31)-c1cc(O)cc(c1)C[C@H](NC(=O)[C@H](C(C)C)N(C)C(=O)[C@@H]1CN(C(C)=O)C[C@@H]1C(F)(F)F)C(=O)N1CCC[C@H](N1)C(=O)OCC(C)(C)C2 [Example A80]
3. CCn1c(-c2cc(C3CCN(C)CC3)cnc2[C@H](C)OC)c2c3cc(ccc31)-c1cc(O)cc(c1)C[C@H](NC(=O)[C@H](C(C)C)N(C)C(=O)[C@@H]1OCC[C@@H]1c1ccccc1)C(=O)N1CCC[C@H](N1)C(=O)OCC(C)(C)C2 (atropisomer, axis not shown) [Example A577]
4. CCn1c(-c2cnccc2COC)c2c3cc(ccc31)-c1cc(O)cc(c1)C[C@H](NC(=O)[C@H](C(C)C)N(C)C(=O)O[C@H]1CCOC1)C(=O)N1CCC[C@H](N1)C(=O)OCC(C)(C)C2 [Example A260]
5. CCn1c(-c2cccnc2[C@H](C)OC)c2c3cc(ccc31)-c1csc(n1)C[C@H](NC(=O)[C@H](C(C)C)N(C)C(=O)N1CC([C@H](C)OC)C1)C(=O)N1CCC[C@H](N1)C(=O)OCC(C)(C)C2 (atropisomer, axis not shown) [Example A279]

Solution:
100 to 1000 nM
1000 to 10000 nM
< 10 nM
1000 to 10000 nM
10 to 100 nM

Field: IC50. Fill in for each record below.
1. CCn1c(-c2cnccc2COC)c2c3cc(ccc31)-c1cc(O)cc(c1)C[C@H](NC(=O)[C@H](C(C)C)N(C)C(=O)[C@H]1CCN(S(C)(=O)=O)C1)C(=O)N1CCC[C@H](N1)C(=O)OCC(C)(C)C2 [Example A24]
2. CCn1c(-c2cccnc2[C@H](C)OC)c2c3cc(ccc31)-c1csc(n1)C[C@H](NC(=O)[C@H](C(C)C)N(C)C(=O)N1CCN(C(=O)CCN(C)C)CC1)C(=O)N1CCC[C@H](N1)C(=O)OCC(C)(C)C2 [Example A459]
3. CCn1c(-c2cccnc2[C@H](C)OC)c2c3cc(ccc31)-c1csc(n1)C[C@H](NC(=O)[C@H](C(C)C)N(C)C(=O)[C@H]1CCN(C)C1)C(=O)N1CCC[C@H](N1)C(=O)OCC(C)(C)C2 [Example A108]
4. CCn1c(-c2cccnc2[C@H](C)OC)c2c3cc(ccc31)-c1cc(O)cc(c1)C[C@H](NC(=O)[C@H](C(C)C)N(C)C(=O)O[C@H]1CCOC1)C(=O)N1CCC[C@H](N1)C(=O)OCC(C)(C)C2 [Example A209]

Solution:
["1000 to 10000 nM", "100 to 1000 nM", "> 10000 nM", "100 to 1000 nM"]

Values from patent US20230233569A1
